Source: PubChem BioAssay

- test method notes: FRG1 promoter luciferase signal modulators, primary screen, FRG1 inhibition for FSHD, cell-based, C2C12 myotubes, firefly/Renilla luciferase, luminescence (AID 1084)
- conditions used: higher = more signal, called active from +8 up or from −8 down
observable: z-score
Please respond with just the number, no unit label.

COc1ccc(NC(=O)O[C@H]2[C@@H]3OC(=O)[C@H](Cc4cccc(Br)c4)C/C=C/C[C@@H](Cc4cccc(Br)c4)C(=O)O[C@H]3[C@@H](OC)O[C@@H]2CO)cc1 ... 3.13
CO[C@H]1O[C@H](CO)[C@@H](OC(=O)c2ccc(Br)cc2)[C@@H]2OC(=O)[C@H](Cc3ccccc3)C/C=C/C[C@@H](Cc3ccccc3)C(=O)O[C@@H]12 ... -0.215
NC(=O)[C@H]1[C@@H]2C(=O)O[C@@H](c3ccccc3)[C@@H](c3ccccc3)N2[C@@H](c2ccc(O)cc2)[C@]12C(=O)Nc1ccccc12 ... -0.977
O=C1C2C=CC(C(O)c3ccco3)N(Nc3ccccc3)C2C(=O)N1c1ccccc1 (configuration not stated) ... 0.64
CN(C)C(=O)[C@@]1(CCC(=O)OC(C)(C)C)N=C(c2ccc(OCCCO)cc2)O[C@H]1c1ccccc1CN=[N+]=[N-] ... -0.119
C=C[C@@H](OC)[C@H](OC(=O)Nc1ccc(SC)cc1)c1ccc(OCCO)cc1 ... 6.53

Attention now shifts to the item below.
Q: Returns the measured z-score for the input compound. Input: C=CCNC(=O)[C@H]1[C@@H]2C(=O)O[C@@H](c3ccccc3)[C@@H](c3ccccc3)N2[C@@H](c2ccc(O)cc2)[C@]12C(=O)N(C(=O)OCCOC)c1ccc(C#CCC(C(=O)OC)C(=O)OC)cc12
Result: 0.172
